The following compounds are listed with their measured pIC50 values.
- protocol_notes: Cytotoxicity against human HHL-5 cells assessed as reduction in cell viability incubated for 24 hrs by MTT assay
- Assay type: cell-based
- assay_setup: HHL-5, 24 h
pIC50: −log10 of the molar value.
recorded_metric: pIC50

- compound: "N#Cc1ccc(S(=O)(=O)N2C/C(=C\\c3ccc(F)cc3)C(=O)/C(=C/c3ccc(F)cc3)C2)cc1"
  value_reported: 4.84
- compound: "Cl.NC1=NC(c2ccccc2F)C2=C(N1)/C(=C/c1ccccc1F)CN(S(=O)(=O)c1ccc(Br)cc1)C2 (stereo not drawn)"
  value_reported: 4.90
- compound: "O=C1/C(=C/c2cccc(F)c2)CN(S(=O)(=O)c2ccccc2)C/C1=C\\c1cccc(F)c1"
  value_reported: 4.77
- compound: "Cl.N#Cc1ccc(S(=O)(=O)N2CC3=C(NC(N)=NC3c3ccc(F)cc3)/C(=C/c3ccc(F)cc3)C2)cc1 (stereo not drawn)"
  value_reported: 4.57
- compound: "Cl.NC1=NC(c2ccc(F)cc2)C2=C(N1)/C(=C/c1ccc(F)cc1)CN(S(=O)(=O)c1ccccc1)C2 (stereo not drawn)"
  value_reported: 4.94
- compound: "Cl.NC1=NC(c2ccc(F)cc2)C2=C(N1)/C(=C/c1ccc(F)cc1)CN(S(=O)(=O)c1ccc(C(F)(F)F)cc1)C2 (stereo not drawn)"
  value_reported: 4.61
- compound: "O=C1/C(=C/c2ccccc2F)CN(S(=O)(=O)c2ccc(F)cc2)C/C1=C\\c1ccccc1F"
  value_reported: 4.84
- compound: "N#Cc1ccc(S(=O)(=O)N2C/C(=C\\c3cccc(F)c3)C(=O)/C(=C/c3cccc(F)c3)C2)cc1"
  value_reported: 5.12
- compound: "Cl.NC1=NC(c2cccc(F)c2)C2=C(N1)/C(=C/c1cccc(F)c1)CN(S(=O)(=O)c1ccc(Br)cc1)C2 (stereo not drawn)"
  value_reported: 4.89
- compound: "Cl.N#Cc1ccc(S(=O)(=O)N2CC3=C(NC(N)=NC3c3ccccc3F)/C(=C/c3ccccc3F)C2)cc1 (stereo not drawn)"
  value_reported: 4.54
- compound: "O=C1/C(=C/c2ccccc2F)CN(S(=O)(=O)c2ccc(Cl)cc2)C/C1=C\\c1ccccc1F"
  value_reported: 5.02
- compound: "O=C1/C(=C/c2ccccc2F)CN(S(=O)(=O)c2ccc(C(F)(F)F)cc2)C/C1=C\\c1ccccc1F"
  value_reported: 4.82
- compound: "Cl.NC1=NC(c2cccc(F)c2)C2=C(N1)/C(=C/c1cccc(F)c1)CN(S(=O)(=O)c1ccc(F)cc1)C2 (stereo not drawn)"
  value_reported: 4.89
- compound: "Cl.NC1=NC(c2ccc(F)cc2)C2=C(N1)/C(=C/c1ccc(F)cc1)CN(S(=O)(=O)c1ccc(Br)cc1)C2 (stereo not drawn)"
  value_reported: 4.74
- compound: "CC(=O)Nc1ccc(S(=O)(=O)N2CC3=C(NC(N)=NC3c3cccc(F)c3)/C(=C/c3cccc(F)c3)C2)cc1.Cl (stereo not drawn)"
  value_reported: 4.97
- compound: "Cc1ccc(S(=O)(=O)N2CC3=C(NC(N)=NC3c3ccc(F)cc3)/C(=C/c3ccc(F)cc3)C2)cc1.Cl (stereo not drawn)"
  value_reported: 4.49
- compound: "CC(=O)Nc1ccc(S(=O)(=O)N2CC3=C(NC(N)=NC3c3ccccc3F)/C(=C/c3ccccc3F)C2)cc1.Cl (stereo not drawn)"
  value_reported: 4.66
- compound: "O=C1/C(=C/c2cccc(F)c2)CN(S(=O)(=O)c2ccc([N+](=O)[O-])cc2)C/C1=C\\c1cccc(F)c1"
  value_reported: 4.84
